self-cleavage values, listed per item
B1: OR4K15 (parent)
chain: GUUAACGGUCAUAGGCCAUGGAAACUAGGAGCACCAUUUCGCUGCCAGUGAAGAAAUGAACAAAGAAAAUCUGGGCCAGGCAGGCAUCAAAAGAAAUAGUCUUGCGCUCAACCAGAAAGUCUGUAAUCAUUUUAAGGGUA

Variants of: B1
protocol text: self-cleavage, relative activity (ratio to wild type); higher = more cleavage; in vitro, sequencing; the parent is a self-cleaving ribozyme
# answer = number (no unit)

Solved cases (3 shown):
> print(dat)
         var  reported.property  observed.result
1  A30G A78G      self-cleavage             0.11
2       A66C      self-cleavage             1.02
3  A36G A62G      self-cleavage             1.94

Documented self-cleavage of G21A U70C : 1.39

Per the records, this variant ( U12A A96U ) has self-cleavage equal to 1.67

Record A55G A135G . Reported self-cleavage: 1.57

In plain terms, A47U A78C has a documented self-cleavage of 0.08

self-cleavage for G15A A54G is 1.41

Record A91C U132C , field self-cleavage: 2.49

Just for reference, the RNAGym collection of RNA variant scans (doi:10.7554/elife.90254) is where these values come from.
